Data provenance is patent US9302996B2.

test system: C57BL/6J mice; assay: Antifeeding activity (high fat diet intake up to 4 hours); format: in vivo; details: Mus musculus, male C57BL/6J mice, 5 mg/kg oral, food ingested up to 4 hours, read-out: Antifeeding rate (5 mg/kg)
Mark true for reported inhibition in vivo at 5 mg/kg of 80% or greater; mark false for anything smaller.

>  <STRUCTURE_NOTATION>
CC(C)(COc1ncc(-c2ccc(-c3ncc(C(F)(F)F)[nH]3)cc2)cn1)C(=O)O

>  <SYSTEM_NAME>
C57BL/6J mice

>  <CLASS>
false

$$$$
>  <STRUCTURE_NOTATION>
CC(C)(COc1cnc(-c2ccc(-c3nc(C(F)(F)F)c[nH]3)cc2)cn1)C(=O)O

>  <SYSTEM_NAME>
C57BL/6J mice

>  <CLASS>
false

$$$$
>  <STRUCTURE_NOTATION>
CC(C)(COc1cnc(-c2ccc(-c3ncc(C4(C(F)(F)F)CC4)[nH]3)cc2)cn1)C(=O)O

>  <SYSTEM_NAME>
C57BL/6J mice

>  <CLASS>
false

$$$$
>  <STRUCTURE_NOTATION>
CC(C)(COc1ccc(-c2ccc(-c3ncc(C4(C(F)(F)F)CCC4)[nH]3)cn2)cc1)C(=O)O

>  <SYSTEM_NAME>
C57BL/6J mice

>  <CLASS>
false

$$$$
>  <STRUCTURE_NOTATION>
CC(C)(COc1ccc(-c2ccc(-c3ncc(C(F)(F)C(F)(F)F)[nH]3)cn2)cc1)C(=O)O

>  <SYSTEM_NAME>
C57BL/6J mice

>  <CLASS>
true

$$$$
>  <STRUCTURE_NOTATION>
Cc1cc(OCC(C)(C)C(=O)O)ncc1-c1ccc(-c2ncc(C(F)(F)F)[nH]2)c(F)c1

>  <SYSTEM_NAME>
C57BL/6J mice

>  <CLASS>
false

$$$$
>  <STRUCTURE_NOTATION>
CC(C)(COc1ccc(-c2ccc(-c3ncc(C(F)(F)F)[nH]3)nc2)cc1)C(=O)O

>  <SYSTEM_NAME>
C57BL/6J mice

>  <CLASS>
false

$$$$
>  <STRUCTURE_NOTATION>
CC(C)(COc1ccc(-c2ccc(-c3ncc(CC4CC4)[nH]3)cn2)cc1)C(=O)O

>  <SYSTEM_NAME>
C57BL/6J mice

>  <CLASS>
false

$$$$
>  <STRUCTURE_NOTATION>
Cc1cc(OCC(C)(C)C(=O)O)ncc1-c1ccc(-c2ncc(CC3CC3)[nH]2)c(F)c1

>  <SYSTEM_NAME>
C57BL/6J mice

>  <CLASS>
false

$$$$
>  <STRUCTURE_NOTATION>
Cc1cc(OCC(C)(C)C(=O)O)ncc1-c1ccc(-c2ncc(C(F)(F)C(F)(F)F)[nH]2)nc1

>  <SYSTEM_NAME>
C57BL/6J mice

>  <CLASS>
false

$$$$
>  <STRUCTURE_NOTATION>
CC(C)(COc1ccc(-c2ccc(-c3ncc(C(F)(F)F)[nH]3)cn2)cn1)C(=O)O

>  <SYSTEM_NAME>
C57BL/6J mice

>  <CLASS>
false

$$$$
>  <STRUCTURE_NOTATION>
Cc1cc(OCC2(C(=O)O)CCC2)ccc1-c1ccc(-c2ncc(C(F)(F)F)[nH]2)cn1

>  <SYSTEM_NAME>
C57BL/6J mice

>  <CLASS>
false

$$$$
>  <STRUCTURE_NOTATION>
Cc1cc(OCC2(C(=O)O)CC2)ncc1-c1ccc(-c2ncc(C(F)(F)F)[nH]2)c(F)c1

>  <SYSTEM_NAME>
C57BL/6J mice

>  <CLASS>
true

$$$$
>  <STRUCTURE_NOTATION>
CC(C)Cc1cnc(-c2ccc(-c3ccc(OCC(C)(C)C(=O)O)nc3)nc2)[nH]1

>  <SYSTEM_NAME>
C57BL/6J mice

>  <CLASS>
false

$$$$
>  <STRUCTURE_NOTATION>
CC(C)(COc1ccc(-c2ccc(-c3ncc(C4CCCCCC4)[nH]3)cn2)cc1)C(=O)O

>  <SYSTEM_NAME>
C57BL/6J mice

>  <CLASS>
false

$$$$
>  <STRUCTURE_NOTATION>
Cc1cc(OCC2(C(=O)O)CCC2)ncc1-c1cnc(-c2ncc(C(F)(F)F)[nH]2)c(Cl)c1

>  <SYSTEM_NAME>
C57BL/6J mice

>  <CLASS>
true

$$$$
>  <STRUCTURE_NOTATION>
Cc1cc(OCC(C)(C)C(=O)O)ncc1-c1ccc(-c2ncc(C3(C(F)(F)F)CC3)[nH]2)c(F)c1

>  <SYSTEM_NAME>
C57BL/6J mice

>  <CLASS>
false

$$$$
>  <STRUCTURE_NOTATION>
Cc1cc(OCC(C)(C)C(=O)O)ncc1-c1ccc(-c2ncc(CC(C)C)[nH]2)c(F)c1

>  <SYSTEM_NAME>
C57BL/6J mice

>  <CLASS>
false

$$$$
>  <STRUCTURE_NOTATION>
CC(C)(COc1cnc(-c2ccc(-c3ncc(C(F)(F)F)[nH]3)nc2)cn1)C(=O)O

>  <SYSTEM_NAME>
C57BL/6J mice

>  <CLASS>
false

$$$$
>  <STRUCTURE_NOTATION>
Cc1cc(OCC2(C(=O)O)CCC2)ncc1-c1ccc(-c2ncc(C(F)(F)F)[nH]2)c(F)c1

>  <SYSTEM_NAME>
C57BL/6J mice

>  <CLASS>
true

$$$$
>  <STRUCTURE_NOTATION>
Cc1cc(OCC(C)(C)C(=O)O)ncc1-c1ccc(-c2ncc(CC(C)C)[nH]2)nc1

>  <SYSTEM_NAME>
C57BL/6J mice

>  <CLASS>
false

$$$$
>  <STRUCTURE_NOTATION>
CCC(CC)(COc1ccc(-c2ccc(-c3ncc(C(F)(F)F)[nH]3)nc2)cn1)C(=O)O

>  <SYSTEM_NAME>
C57BL/6J mice

>  <CLASS>
false

$$$$
>  <STRUCTURE_NOTATION>
Cc1cc(OCC(C)(C)C(=O)O)ncc1-c1ccc(-c2ncc(C(F)(F)F)[nH]2)c(C)c1

>  <SYSTEM_NAME>
C57BL/6J mice

>  <CLASS>
false

$$$$
>  <STRUCTURE_NOTATION>
CC(C)(COc1ccc(-c2ccc(-c3ncc(C4CCCCC4)[nH]3)cn2)cc1)C(=O)O

>  <SYSTEM_NAME>
C57BL/6J mice

>  <CLASS>
false

$$$$
>  <STRUCTURE_NOTATION>
O=C(O)C1(COc2ccc(-c3ccc(-c4ncc(C(F)(F)F)[nH]4)cn3)cc2)CCCC1

>  <SYSTEM_NAME>
C57BL/6J mice

>  <CLASS>
false

$$$$
>  <STRUCTURE_NOTATION>
CC(C)(COc1ccc(-c2ccc(-c3ncc(C(F)(F)F)[nH]3)nc2)cn1)C(=O)O

>  <SYSTEM_NAME>
C57BL/6J mice

>  <CLASS>
false

$$$$
